Target: recombinant human UAE (Homo sapiens (Human))
Sequence (P22314 whole entry): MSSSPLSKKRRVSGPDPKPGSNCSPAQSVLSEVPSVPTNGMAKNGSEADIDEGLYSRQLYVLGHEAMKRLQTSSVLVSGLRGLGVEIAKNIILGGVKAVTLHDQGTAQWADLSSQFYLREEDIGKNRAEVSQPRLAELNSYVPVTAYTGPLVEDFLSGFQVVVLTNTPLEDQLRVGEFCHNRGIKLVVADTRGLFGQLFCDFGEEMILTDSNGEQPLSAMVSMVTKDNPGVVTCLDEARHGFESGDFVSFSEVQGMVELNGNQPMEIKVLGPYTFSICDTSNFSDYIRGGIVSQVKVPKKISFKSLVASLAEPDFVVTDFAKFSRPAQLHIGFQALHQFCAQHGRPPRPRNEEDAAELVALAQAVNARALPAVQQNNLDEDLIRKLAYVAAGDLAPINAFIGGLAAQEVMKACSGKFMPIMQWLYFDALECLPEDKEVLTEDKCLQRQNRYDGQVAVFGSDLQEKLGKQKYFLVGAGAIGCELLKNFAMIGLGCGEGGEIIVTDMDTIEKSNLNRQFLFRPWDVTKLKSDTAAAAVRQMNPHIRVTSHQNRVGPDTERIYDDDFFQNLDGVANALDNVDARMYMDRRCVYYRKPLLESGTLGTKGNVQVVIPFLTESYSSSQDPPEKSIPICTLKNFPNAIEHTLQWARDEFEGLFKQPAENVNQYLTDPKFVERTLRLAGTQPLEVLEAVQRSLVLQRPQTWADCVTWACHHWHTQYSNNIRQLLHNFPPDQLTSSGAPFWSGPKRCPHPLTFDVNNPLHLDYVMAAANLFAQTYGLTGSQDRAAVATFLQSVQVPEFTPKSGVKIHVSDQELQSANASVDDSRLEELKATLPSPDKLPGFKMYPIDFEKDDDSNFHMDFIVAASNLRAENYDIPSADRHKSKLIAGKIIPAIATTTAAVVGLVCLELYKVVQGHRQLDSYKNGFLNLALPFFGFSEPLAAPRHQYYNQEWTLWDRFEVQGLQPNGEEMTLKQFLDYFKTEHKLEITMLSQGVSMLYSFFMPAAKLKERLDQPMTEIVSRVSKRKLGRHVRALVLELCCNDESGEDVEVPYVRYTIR
Assay: Ubiquitin Activating Enzyme (UAE) HTRF Assay
pIC50: −log10 of the molar value.
Readout type: pIC50

Compound	Test system	pIC50
NS(=O)(=O)OC[C@H]1C[C@@H](Nc2ccnc3cc(-c4cccc5cc(C(=O)O)ccc45)nn23)[C@H](O)[C@@H]1O (relative stereo)	recombinant human UAE (Homo sapiens (Human))	> 8.00

Turning now to a further compound:
Problem: // fetch recombinant human UAE (Homo sapiens (Human)) pIC50 for COc1ccc(C(C)(C)C)cc1-c1cc2nccc(N[C@@H]3C[C@H](COS(N)(=O)=O)[C@@H](O)[C@H]3O)n2n1 (racemic)
Solution: > 8.00
